Below, each entry is listed with its recorded HLM QH.
# PROTOCOL TEXT: Metabolic (microsomal) stability assay, human liver microsomes (HLM)
# Format: in vitro ADME
# EXPERIMENTAL SETUP: 1 μM test compound, predicted clearance as percent of liver blood flow
READOUT KIND: HLM QH (%)

# COMPOUND, REPORTED RELATION, RECORDED NUMBER
measured = [
    ("CO[C@@H]1C[C@@H]([C@H](C)Oc2nc(-c3onc4c3CCC[C@@]43CCCc4sc(N)c(C#N)c43)nc3c2n(C)c(=O)n3[C@@H]2CCCOC2)N(C)C1", "=", 27),
    ("C[C@H](Oc1nc(-c2onc3c2CCC[C@@]32CCCc3sc(N)c(C#N)c32)nc2c1n(C)c(=O)n2[C@@H]1CC2CCC1O2)[C@@H]1CCCN1C (stereo partly drawn)", "=", 31),
    ("C[C@H](Oc1nc(-c2onc3c2CCC[C@@]32CCCc3sc(N)c(C#N)c32)nc2c1n(C)c(=O)n2[C@H]1CCC[C@@H]1O)[C@@H]1CCCN1C", "<", 24),
    ("C[C@H](Oc1nc(-c2onc3c2CCC[C@@]32CCCc3sc(N)c(C#N)c32)nc2c1n(C)c(=O)n2C12COC(C1)C2)[C@@H]1CCCN1C", "<", 24),
    ("C[C@H](Oc1nc(-c2noc3c2CCC[C@@]32CCCc3sc(N)c(C#N)c32)nc2c1CCO[C@]21CCOC1)[C@@H]1CCCN1C", "=", 33),
    ("C[C@H](Oc1nc(-c2onc3c2CCC[C@@]32CCCc3sc(N)c(C#N)c32)nc2c1n(C)c(=O)n2[C@@H]1CCOC1)[C@@H]1C[C@H](F)CN1C", "=", 58),
]
